Source: patent US11224591B2

# assay-text: Caco-2 bidirectional assay (A-B and B-A) to study the effect of piperine (P-gp inhibitor) on the permeability
# Format: in vitro ADME
# measurement-parameters: human; Digoxin 10 μM; Caco-2 monolayer, HBSS pH 7.4
test-readout: Papp A→B at 120 min, 10 μM (×10⁻⁶ cm/s)

>>> data_value("C[C@H]1O[C@@H](O[C@H]2[C@@H](O)C[C@H](O[C@H]3[C@@H](O)C[C@H](O[C@H]4CC[C@@]5(C)[C@H](CC[C@@H]6[C@@H]5C[C@@H](O)[C@]5(C)[C@@H](C7=CC(=O)OC7)CC[C@]65O)C4)O[C@@H]3C)O[C@@H]2C)C[C@H](O)[C@@H]1O [Digoxin]")
0.829
